Would you mind telling me the reported protein stability index of each entry?
B1: ZNF263 (parent)
chain: QPKKLHLCPLCGKNFSNNSNLIRH

# Variants of: B1
# assay details: protein stability index of a GFP-peptide fusion (GPS, HEK-293T) (PSI 1-6); higher = more stable;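 further: lentivirally expressed fusions sorted by FACS into six bins by GFP to DsRed ratio, PSI derived from sequencing read proportions per bin multiplied by bin number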
# condition context: c terminus: a fixed tail appended
Could you respond with only the numeric value?

Query: Look up protein stability index for this variant: "S19R"
Result: 2.5

Query: If you can, please state the reported protein stability index value of "I22L" .
Result: 2.93

Query: Report protein stability index for "L10F" please.
Result: 3.03

Query: Item "S19T" has what recorded protein stability index?
Result: 2.75

Query: Fill in the blank: the reported protein stability index of "G12M" is ____.
Result: 1.79

Query: Bench note: what protein stability index did "P9W" show?
Result: 2.4

Query: What value of measured protein stability index is listed for "L21R" ?
Result: 2.64

Query: Could you tell me which protein stability index is on file for "I22E" ?
Result: 3.45

Query: Form field: reported protein stability index of "P2M"
Result: 2.27

Query: Fill blank: measured protein stability index of the variant "C8Y" is ____.
Result: 1.82
